test system: P388 leukemia ip, CD2F1 mice, survival T/C; assay: NCI In Vivo Anticancer Drug Screen. Data for tumor model P388 Leukemia (intraperitoneal) in CD2F1 (CDF1) mice; settings: endpoint: median survival time; dose: 100.0 mg/kg/injection; schedule: Q04DX003 (ip); vehicle: saline
Toxic doses and inconclusive results are not listed. The calls were made as follows: active = survival T/C of 150% or more; inactive = T/C below 125% in these data. Square brackets hold non-standard residues; d marks the D form. Peptide text beside a SMILES is read from it. Ac5c = NC1(C(=O)O)CCCC1
Field 'call' accepts active, inactive

N/C(C/C(=N/OC(=O)c1ccccc1)OC(=O)c1ccccc1)=N/O: inactive
COc1ccc(C(=O)CCS(=O)(=O)CCC(=O)c2ccc(OC)cc2)cc1: inactive
CC1CN1P(=O)(N1CCCCCC1)N1CC1C (stereo not drawn): active
NCC(=O)NC1(C(=O)O)CCCC1 (H-Gly-[Ac5c]-OH): inactive
CC(=O)CC(C)=NCCN=C(C)CC(C)=O.C[CH2][Sn][CH2]C: active
[C-]#[O+].[C-]#[O+].[C-]#[O+].[CH3][Sn]([c]1ccccc1)[c]1ccccc1.[W].[c-]1[c-][c-][cH-][c-]1: inactive
O=C(O)c1ccccc1Nc1ccccc1[N+](=O)[O-]: inactive

API: the following record is the query input.
// return assay outcome for O=C1CSCC(=O)OCCOCCOCCOCCO1 inactive

====

Test system: P388 leukemia ip, CD2F1 mice, survival T/C
Test: NCI In Vivo Anticancer Drug Screen. Data for tumor model P388 Leukemia (intraperitoneal) in CD2F1 (CDF1) mice
Conditions: endpoint: median survival time; dose: 100.0 mg/kg/injection; schedule: Q01DX001 (ip); vehicle: saline with Tween-80; higher = longer survival
Method: The antitumor activity of compounds was measured in mice bearing transplantable tumors. Survival or tumor size were measured and the results are expressed as the measurement made in the treated group (T) divided by the measurement made in the vehicle treated control group (C). The tumor model used in this assay is P388 Leukemia (intraperitoneal) in CD2F1 (CDF1) mice
Toxic doses and inconclusive results are not listed.
measurement.type: T/C

CC1=C(C)C(=O)C(C(C)(C)CC(=O)n2cc(F)c(=O)[nH]c2=O)=C(C)C1=O: 111 % of control
Cc1ccc(Cl)c(C(O)(C(F)(F)F)C(F)(F)F)c1: 108 % of control
O=C(O)/C(=C\c1c(Cl)[nH]c2ccccc12)NC(=O)c1ccccc1: 103 % of control
CCOC(=O)c1cnn(CC(OCC)OCC)c1N: 102 % of control
CCCCOP(O)(=S)OCCCC.[Ho]: 98 % of control
C=CC1CCC[S+]1CC(=O)C(Cl)(Cl)Cl (configuration not stated): 102 % of control
CCN1CC[N+](CC)=C1C(=S)[S-]: 100 % of control
N#CC1CC(c2ccc([N+](=O)[O-])cc2)N(c2ccccc2)O1 (configuration not stated): 95 % of control

Lookup result for Cc1coc2c3c(ccc12)OC(C)(C)C=C3 ; measured T/C: 102 % of control

For reference, reported T/C for COc1cc(C)c(/C(=N/O)n2nnc(-c3ccc(Cl)cc3)n2)c(C)c1 stands at 123 % of control

Field T/C (entry CCOC(=O)CCCCCOCOC ) reads 106 % of control

Form: molecule = O=C(O)c1c(-c2ccccc2)sc2ccccc2c1=O ; T/C = 99 % of control

====

Each entry below carries its recorded T/C.
test system: P388 leukemia ip, CD2F1 mice, survival T/C; test: NCI In Vivo Anticancer Drug Screen. Data for tumor model P388 Leukemia (intraperitoneal) in CD2F1 (CDF1) mice; conditions: endpoint: median survival time; dose: 50.0 mg/kg/injection; schedule: Q01DX005 (ip); vehicle: suspension in saline; higher = longer survival
Toxic doses and inconclusive results are not listed.

Worked cases, T/C given:
Cc1cc(C(=C2C=CC(=Nc3ccc(S(=O)(=O)O)cc3)C=C2)c2ccc(Nc3ccc(S(=O)(=O)O)cc3)cc2)cc(S(=O)(=O)O)c1N: 102 % of control
N=C(N)SCCC(=O)NCNC(=O)CCSC(=N)N: 98 % of control
CN(C)Cc1cnccc1I: 101 % of control

We next turn to a different molecule, shown below.
Sample CCN(CC)CCNc1c(OC)c(OC)cc2nccnc12 ; T/C observed: 98 % of control

====

tested on: P388 leukemia ip, CD2F1 mice, survival T/C; assay: NCI In Vivo Anticancer Drug Screen. Data for tumor model P388 Leukemia (intraperitoneal) in CD2F1 (CDF1) mice; settings: endpoint: median survival time; dose: 50.0 mg/kg/injection; schedule: Q01DX005 (ip); vehicle: saline with Tween-80; higher = longer survival
Inconclusive results and toxic doses are left out.
measurement.type: T/C

Fc1ccc(N2CSC(=S)N(c3ccc(F)cc3F)C2)c(F)c1: 107 % of control
CCOC(=O)NP1(=O)NCc2ccccc2CN1: 103 % of control

// below: T/C requested for another molecule
Looking up CN(C)CCCN1C(=O)C2CCC(C)(C1=O)C2(C)C (stereo not drawn) , I see its T/C listed as 100 % of control

====

Measured T/C values are reported for all entries that follow.
test system: P388 leukemia ip, CD2F1 mice, survival T/C; assay: NCI In Vivo Anticancer Drug Screen. Data for tumor model P388 Leukemia (intraperitoneal) in CD2F1 (CDF1) mice; conditions: endpoint: median survival time; dose: 400.0 mg/kg/injection; schedule: Q01DX001 (ip); vehicle: saline with Tween-80; higher = longer survival
Inconclusive results and toxic doses are left out.

CCCCOP(O)(=S)OCCCC.[Ho]: 90 % of control

Looking up COc1cc(C)c(/C(=N/O)n2nnc(-c3ccc(Cl)cc3)n2)c(C)c1 , I see its T/C listed as 95 % of control

Record COC(=O)c1nn(-c2ccc(Cl)cc2)c2nc3ccccc3c-2c1C(=O)OC . Reported T/C: 96 % of control

compound c1ccc(C2=NN(c3ccccc3)C3(c4ccccc4)CCCN23)cc1 (stereo not given) , T/C observed: 95 % of control

Memo: CC(C(=O)O)C(C)(C)c1ccccc1 (stereo not given) , reported T/C: 105 % of control

Sample Cc1cc(C)n(C2=NS(=O)(=O)c3ccccc3N2c2ccccc2)n1 ; T/C observed: 97 % of control

The recorded T/C for COc1ccc(N/C(=C/C#N)c2ccccc2)cc1 is 95 % of control

The recorded T/C for CC(/C=N/Nc1ccccc1)=N\N=c1/scc(-c2ccc(Br)cc2)n1-c1ccc(C)cc1 is 86 % of control

The compound listed as COP(=O)(OC)C1(Nc2ccccc2)C2CC3CC(C2)CC1C3 (stereo not given) has a reported T/C of 102 % of control

Sure, the documented T/C for CN(C)CCP(=O)(O)O is 100 % of control

====

tested on: P388 leukemia ip, CD2F1 mice, survival T/C; test: NCI In Vivo Anticancer Drug Screen. Data for tumor model P388 Leukemia (intraperitoneal) in CD2F1 (CDF1) mice; conditions: endpoint: median survival time; dose: 50.0 mg/kg/injection; schedule: Q01DX005 (ip); vehicle: Klucel (hydroxypropylcellulose) (HPC); higher = longer survival
Toxic doses and inconclusive results are not listed.
measurement.type: T/C

// below: answered compounds
O=c1c(N(CCO)CCO)cn(Cc2ccccc2)c(=O)n1Cc1ccccc1: 102 % of control
CSc1nc(C#N)c(/N=C\N(C)C)s1: 100 % of control
CNc1[nH]c(=O)ncc1N: 98 % of control
CP(=O)(c1ccccc1)c1ccccc1OCCCOCCCOc1ccccc1P(C)(=O)c1ccccc1 (centres undefined): 99 % of control
O=[N+]([O-])c1cc2cc(Cl)c3ccccc3c2o1: 100 % of control
O=C1C=C2CCCCCCCC(C1)C2 (centres undefined): 113 % of control
CN1CCC/C1=C1/C(=O)Nc2ccc(Cl)cc21: 108 % of control
COc1cc2c(cc1OC)C1C(CC(=O)O)CCCN1CC2 (centres undefined): 112 % of control

T/C recorded for this compound, COc1ccc(C2(c3ccccc3)c3ccccc3C(=O)c3ccccc32)cc1 , is 101 % of control

====

system: P388 leukemia ip, CD2F1 mice, survival T/C; assay: NCI In Vivo Anticancer Drug Screen. Data for tumor model P388 Leukemia (intraperitoneal) in CD2F1 (CDF1) mice; settings: endpoint: median survival time; dose: 25.0 mg/kg/injection; schedule: Q01DX009 (ip); vehicle: saline with Tween-80; higher = longer survival
Toxic doses and inconclusive results are not listed.
measurement.type: T/C

Here are 2 compounds together with their reported answers.
COc1ccc(C#CC(O)C(F)(F)F)cc1 (stereo not drawn): 102 % of control
CC12CCCCC1=Nc1ccc3ccccc3c12 (stereo not drawn): 90 % of control

Query CC(O)C(NC(=O)c1cnc(OCc2ccccc2)nc1N)C(=O)O (stereo not drawn) yields T/C of 90 % of control

Summary for this compound, COc1ccc2c(c1)C1CCN(C)CC1OC2=O (stereo not drawn) : T/C is 98 % of control

// field: T/C; key: COC1=NC=CC=CC1 ; value = 107 % of control

Summary for this compound, CCN(CC)CCNC1=CC(=S)NC(C)(C)C1 : T/C is 103 % of control

Value of T/C reported for the compound O=c1c(Cl)cc(Cl)cn1S(=O)(=O)c1ccc([N+](=O)[O-])cc1 is 106 % of control

Measured T/C of CC(C)S(=O)(=O)/C(Cl)=C(/Cl)C(Cl)=C(Cl)Cl : 109 % of control
